Test: Cell cycle arrest in human ALL5 cells assessed as accumulation at sub-G1 phase at 5 times antiproliferative IC50 after 96 hrs by propidium iodide staining based flow cytometry (reference value: 12%)
Type: functional
This listing pairs compounds with measured Activity.
Measured Endpoint: Activity (%)

>>> value("C#CCOC(=O)[C@H](CC)[C@H]1CC[C@H](C)[C@H]([C@@H](C)[C@H](O)[C@H](C)C(=O)[C@H](CC)[C@H]2O[C@]3(C=C[C@@H](OC(C)=O)[C@]4(CC[C@@](C)([C@H]5CC[C@](O)(CC)[C@H](C)O5)O4)O3)[C@H](C)C[C@@H]2C)O1")
26.8
>>> value("CC[C@@H](C(=O)[C@@H](C)[C@@H](O)[C@H](C)[C@@H]1O[C@@H]([C@@H](CC)C(=O)NCCc2ccc(F)cc2)CC[C@@H]1C)[C@H]1O[C@]2(C=C[C@@H](OC(C)=O)[C@]3(CC[C@@](C)([C@H]4CC[C@](O)(CC)[C@H](C)O4)O3)O2)[C@H](C)C[C@@H]1C")
49.3
>>> value("C#CCOC(=O)[C@H](CC)[C@H]1CC[C@H](C)[C@H]([C@@H](C)[C@H](O)[C@H](C)C(=O)[C@H](CC)[C@H]2O[C@]3(C=C[C@@H](O)[C@]4(CC[C@@](C)([C@H]5CC[C@](O)(CC)[C@H](C)O5)O4)O3)[C@H](C)C[C@@H]2C)O1")
49.8
>>> value("C#CCNC(=O)[C@H](CC)[C@H]1CC[C@H](C)[C@H]([C@@H](C)[C@H](O)[C@H](C)C(=O)[C@H](CC)[C@H]2O[C@]3(C=C[C@@H](OC(=O)NCC)[C@]4(CC[C@@](C)([C@H]5CC[C@](O)(CC)[C@H](C)O5)O4)O3)[C@H](C)C[C@@H]2C)O1")
70.8
>>> value("C#CCNC(=O)[C@H](CC)[C@H]1CC[C@H](C)[C@H]([C@@H](C)[C@H](O)[C@H](C)C(=O)[C@H](CC)[C@H]2O[C@]3(C=C[C@@H](OC(C)=O)[C@]4(CC[C@@](C)([C@H]5CC[C@](O)(CC)[C@H](C)O5)O4)O3)[C@H](C)C[C@@H]2C)O1")
76.3
>>> value("CCNC(=O)O[C@@H]1C=C[C@]2(O[C@H]([C@@H](CC)C(=O)[C@@H](C)[C@@H](O)[C@H](C)[C@@H]3O[C@@H]([C@@H](CC)C(=O)OCC(F)(F)F)CC[C@@H]3C)[C@@H](C)C[C@H]2C)O[C@@]12CC[C@@](C)([C@H]1CC[C@](O)(CC)[C@H](C)O1)O2")
27.8
